# tested.target: UniProtKB P41145
# Sequence (P41145 whole entry): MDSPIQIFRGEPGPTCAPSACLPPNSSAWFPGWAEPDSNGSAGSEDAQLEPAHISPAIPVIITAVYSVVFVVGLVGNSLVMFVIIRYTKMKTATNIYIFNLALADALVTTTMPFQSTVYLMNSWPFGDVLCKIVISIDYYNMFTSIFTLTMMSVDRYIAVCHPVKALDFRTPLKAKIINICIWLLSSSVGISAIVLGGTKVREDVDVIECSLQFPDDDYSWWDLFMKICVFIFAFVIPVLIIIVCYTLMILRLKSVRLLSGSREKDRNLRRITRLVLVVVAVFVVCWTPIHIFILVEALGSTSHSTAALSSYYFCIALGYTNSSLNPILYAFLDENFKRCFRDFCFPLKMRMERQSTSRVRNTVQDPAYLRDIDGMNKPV
# procedure.text: GTP-γ-S Binding Assay (SPA-based), antagonist mode vs U69593
# Format: biochemical
# test.context: In vitro antagonism; agonist U69593 300 nM; Kb by Cheng-Prusoff equation
Reported Kb by item:
assay.readout: Kb (µM)

INSERT INTO results (compound_structure, assay_readout, result_value) VALUES
  ('NC(=O)c1ccc(OC2CCN(CC3CC3)CC2)nc1', 'Kb', 1.05),
  ('NC(=O)c1ccc(OC2CCN(Cc3cc4ccccc4[nH]3)CC2)nc1', 'Kb', 0.937),
  ('NC(=O)c1ccc(OC2CCN(Cc3ccccn3)CC2)nc1', 'Kb', 0.43);

Cited source for all entries: patent US7196100B2
